Experiment: Toxicity test (acute, oral, mouse)
Type: in vivo
Settings: mouse, in vivo, po; male mice, CMC vehicle, observed for 21 days
measureName: LD50 at 504 h

compound="C=C=CC(N)CCC(=O)O (stereo not shown)" observedmeasurement="> 500 mg/kg"
